- Tested on: NCI-H460
- Assay text: NCI tumour cell line growth inhibition, 48 h
Activity calls are given as the source filed them. No stated cut-off is given here; in the data, active = GI50 up to about 1.1 µM and inactive = higher.
Possible outcomes: active, inactive

>>> group("Cc1nc2c(n1CCN(C)C)C(=O)c1ccccc1C2=O")
"inactive"
>>> group("O=C(O)C1=CCCc2ccc3ccccc3c21")
"inactive"
>>> group("CN(C)CCSc1cccc(-c2cc(-c3cccc(SCCN(C)C)c3)nc(SCCN(C)C)n2)c1")
"inactive"
>>> group("CC(=O)c1csc2c1C(=O)c1ccccc1C2=O")
"inactive"
>>> group("C=C(CN(C)C)C(=O)c1ccc(OC)cc1")
"inactive"
>>> group("Cc1cc2c(=O)cc(-c3ccc(Cl)cc3)oc2c(C(=O)O)c1C")
"inactive"
>>> group("C=C(CCCCC)CN1CCCC1[C@@](C)(O)CC(=O)OCC (stereo partly specified)")
"inactive"
>>> group("COc1cc(NCc2ccc3nc(OC)c(OC)nc3c2)cc(OC)c1OC")
"inactive"
>>> group("CCN(CCCl)c1cc(CN(C)C)cc(NC(=O)C23CCC(C(=O)Nc4cc(CN(C)C)cc(N(CC)CCCl)c4)(CC2)CC3)c1")
"active"
>>> group("CCO/C([O-])=C(\\C(=O)c1ccccc1)[n+]1c(C)n(C)c2ccccc21")
"inactive"
>>> group("CC(=O)n1c2ccccc2c2nc3nc(Oc4ccc(C)cc4)c4ccccc4c3cc21")
"inactive"
